# protocol-description: Example 2 plasma pharmacokinetics, normal renal function vs severe renal impairment
# particulars: both, human, plasma, inhaled or intranasal, 160 mg, Tmax (Median), severe renal impairment; single intranasal 160 mg cocaine HCl
parameter: Tmax (min)
Numbers only, in min.

Look at this compound and give its reported Tmax. COC(=O)[C@H]1[C@@H](OC(=O)c2ccccc2)C[C@@H]2CC[C@H]1N2C [Cocaine, cocaine, reference compound]
25

---

# protocol-description: Example 2 plasma pharmacokinetics, normal renal function vs severe renal impairment
# particulars: both, human, plasma, inhaled or intranasal, 160 mg, t1/2 (Mean), normal renal function; single intranasal 160 mg cocaine HCl
parameter: half-life (h)
Give bare numbers, in h.

Look at this compound and give its reported half-life. COC(=O)[C@H]1[C@@H](OC(=O)c2ccccc2)C[C@@H]2CC[C@H]1N2C [Cocaine, cocaine, reference compound]
5

From: patent US10413505B1
